- Test system: CCRF-CEM leukemia
- MEASUREMENT NOTES: NCI tumour cell line growth inhibition, 48 h
Recorded TGI by entry
VALUE TYPE: TGI

INSERT INTO measurements (compound, value_type, reported_value) VALUES
  ('N/C(=N\NC(=O)c1nc2ccccc2s1)c1ccccn1', 'TGI', '> 45.6 µM'),
  ('CN(C)CCNC(=O)c1cccc2nc3ccc4cccnc4c3nc12', 'TGI', '13.1 µM'),
  ('Cc1ccc(/C(O)=C/c2nc3cccnc3[nH]c2=O)cc1', 'TGI', '> 100 µM'),
  ('N=S(=O)(c1ccccc1)c1ccccc1', 'TGI', '> 100 µM'),
  ('CC(=O)NNC(=S)/N=C\c1c(O)c2ccccc2oc1=O', 'TGI', '> 100 µM'),
  ('C/C(=N\NC(=O)CC#N)C(CN1CCCCC1)C(c1ccccc1)c1c(O)c2ccccc2oc1=O (stereo not drawn)', 'TGI', '73.5 µM'),
  ('CC(CN(C)C)S(=O)(=O)c1ccc(-c2cnc(N)c(C(=O)Nc3ccccc3)n2)cc1 (stereo not drawn)', 'TGI', '29.6 µM'),
  ('CCO/C(CCn1[nH]c(=O)c(Cl)c(Cl)c1=O)=N\NC(=O)C(=O)NN', 'TGI', '> 100 µM');

---

- Test system: HT29 colon
- MEASUREMENT NOTES: NCI tumour cell line growth inhibition, 48 h
Below, each entry is listed alongside its reported TGI.
VALUE TYPE: TGI

INSERT INTO assay_data (smiles_string, reported_value) VALUES
  ('NCCOCn1cc(Cc2cccc(OCc3ccccc3)c2)c(=O)[nH]c1=O', '> 100 µM'),
  ('Cc1cc(C(=O)Nc2cc(Oc3ccc4nc(NC(=O)C5CC5)cn4n3)ccc2C)n(C)n1', '> 10 µM'),
  ('S=c1nc(C(c2ccccc2)c2ccccc2)[nH][nH]1', '> 100 µM'),
  ('CC(=O)Oc1c2c(c(OC(C)=O)c3c1n(C(C)=O)c1ccccc1n3C(C)=O)n(C(C)=O)c1ccccc1n2C(C)=O', '13 µM'),
  ('COc1cccc(OC(=O)c2ccc(C(F)(F)F)nc2Nc2c(C)cccc2Cl)c1', '> 100 µM');

---

# maps each entry to its GI50
- Tested on: A498 renal
- MEASUREMENT NOTES: NCI tumour cell line growth inhibition, 48 h
VALUE TYPE: GI50

INSERT INTO measurements (smiles_string, reported_value) VALUES
  ('COc1cccc(-n2ncc3c(N/N=C/c4ccc(C)cc4)ncnc32)c1', '> 5.43 µM'),
  ('O=C(O)/C=C/c1ccc[c]([Sb](=[O])([OH])[OH])c1', '> 100 µM'),
  ('COc1cccc(Sc2ccc([N+](=O)[O-])c3no[n+]([O-])c23)c1', '15.7 µM'),
  ('Clc1ccccc1[C@@H]1C[C@@H]2Cc3cc(Br)c4ccccc4c3N1O2', '3.79 µM'),
  ('COc1ccc(C(C#N)=C2C=CC(=NO)C=C2)cc1', '6.39 µM'),
  ('C[C@]12CC[C@@H]3c4ccc(O)cc4CC[C@H]3[C@@H]1CC[C@@H]2NS(=O)(=O)c1cccc(Cl)c1', '1.56 µM'),
  ('O=C(Nc1ccc2ncnc(Nc3ccc(Oc4cccc(F)c4)c(Cl)c3)c2c1)c1ccc(CN2CCOCC2)cc1', '3.28 µM');
